molecular target: βII Tryptase (Homo sapiens, UniProt Q15661, N132K); construct: Secreted mature βI and βII tryptases were purified to homogeneity; made in house; host or cells: Pichia pastoris GS115; experiment: Single substrate kinetic analysis, βII tryptase; assay type: biochemical; details: βII Tryptase, 30° C., pH 7.5
Sequence (Q15661 31-275 N132K): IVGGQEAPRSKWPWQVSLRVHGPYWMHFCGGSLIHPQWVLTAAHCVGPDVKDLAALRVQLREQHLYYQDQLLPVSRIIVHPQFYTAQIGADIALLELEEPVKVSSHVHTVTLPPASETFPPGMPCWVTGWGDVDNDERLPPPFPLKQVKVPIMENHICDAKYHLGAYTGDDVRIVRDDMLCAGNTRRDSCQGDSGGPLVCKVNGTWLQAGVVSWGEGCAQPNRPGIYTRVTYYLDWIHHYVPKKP
Residues, ends and D or L forms follow the SMILES beside them. *: point of attachment. ACC = NC(=O)Cc1cc(=O)oc2cc(N*)ccc12
Reported Km by item:
Returns: string containing the numeric result and its unit.

Previously resolved entries follow.
Req: # Km lookup, item CC(=O)N1CCC[C@H]1C(=O)N[C@@H](C)C(=O)N[C@@H](CC(N)=O)C(=O)N[C@@H](CCCCN)C(=O)Nc1ccc2c(CC(N)=O)cc(=O)oc2c1 [Ac-PANK-ACC] (Ac-PANK-{ACC})
Resp: 133 µM

Req: I would be grateful if you could share the reported Km for CC(=O)N1CCC[C@H]1C(=O)N[C@@H](CCCNC(=N)N)C(=O)N[C@@H](CC(N)=O)C(=O)N[C@@H](CCCNC(=N)N)C(=O)Nc1ccc2c(CC(N)=O)cc(=O)oc2c1 [Ac-PRNR-ACC] (Ac-PRNR-{ACC}) .
Resp: 18.6 µM

Req: # get_value(readout='Km', item= CC(=O)N1CCC[C@H]1C(=O)N[C@@H](CCCNC(=N)N)C(=O)N[C@@H](CC(N)=O)C(=O)N[C@@H](CCCCN)C(=O)Nc1ccc2c(CC(N)=O)cc(=O)oc2c1 [Ac-PRNK-ACC] (Ac-PRNK-{ACC}) )
Resp: 14.5 µM

API: the following record is the query input.
Req: What Km value was documented for this molecule, CC(=O)N1CCC[C@H]1C(=O)N[C@@H](CCCNC(=N)N)C(=O)N[C@H](C(=O)N[C@@H](CCCCN)C(=O)Nc1ccc2c(CC(N)=O)cc(=O)oc2c1)[C@@H](C)O [Ac-PRTK-ACC] (Ac-PRTK-{ACC}) ?
Resp: 23.4 µM

----------
target: thrombin (Homo sapiens, UniProt P00734); construct: Human thrombin, plasmin, and factor Xa were used as received; purchased Haematologic Technologies Inc. (Essex Jct., Vt.); experiment: Single substrate kinetic assay with thrombin (ACC vs AMC leaving group); format: biochemical; details: thrombin 5-20 nM
Non-standard residues stand in square brackets, D forms with d. Residues, ends and D or L forms follow the SMILES beside them. *: point of attachment. ACC = NC(=O)Cc1cc(=O)oc2cc(N*)ccc12; AMC = Cc1cc(=O)oc2cc(N*)ccc12; Nle = CCCC[C@H](N)C(=O)O
Each entry below lists one item and its recorded Km value.
The reply should be a number in µM, with the unit left off.

Consider the following illustrative entries.
Req: Consider the compound CCCC[C@H](NC(C)=O)C(=O)N[C@H](C(=O)N1CCC[C@H]1C(=O)N[C@@H](CCCCN)C(=O)Nc1ccc2c(C)cc(=O)oc2c1)[C@@H](C)O [Ac-Nle-Thr-Pro-Lys-AMC] (Ac-[Nle]TPK-{AMC}) and give its measured Km.
Resp: 115

Req: What does the record list as Km for CCCC[C@H](NC(C)=O)C(=O)N[C@H](C(=O)N1CCC[C@H]1C(=O)N[C@@H](CCCCN)C(=O)Nc1ccc2c(CC(N)=O)cc(=O)oc2c1)[C@@H](C)O [Ac-Nle Thr-Pro-Lys--ACC] (Ac-[Nle]TPK-{ACC}) ?
Resp: 125

Req: GET /values?readout=Km&item= CC(=O)N[C@@H](CC(C)C)C(=O)NCC(=O)N1CCC[C@H]1C(=O)N[C@@H](CCCCN)C(=O)Nc1ccc2c(CC(N)=O)cc(=O)oc2c1 [Ac-Leu-Gly-Pro-Lys--ACC] (Ac-LGPK-{ACC})
Resp: 195

***
Req: Entry CC(=O)N[C@@H](CC(C)C)C(=O)NCC(=O)N1CCC[C@H]1C(=O)N[C@@H](CCCCN)C(=O)Nc1ccc2c(C)cc(=O)oc2c1 [Ac-Leu-Gly-Pro-Lys-AMC] (Ac-LGPK-{AMC}) has what Km?
Resp: 160

----------
target: βI Tryptase (Homo sapiens, UniProt Q15661); construct: Secreted mature βI and βII tryptases were purified to homogeneity; made in house; host or cells: Pichia pastoris GS115; test: Single substrate kinetic analysis, βI tryptase; type: biochemical; conditions: βI Tryptase, 30° C., pH 7.5
Sequence (Q15661 31-275): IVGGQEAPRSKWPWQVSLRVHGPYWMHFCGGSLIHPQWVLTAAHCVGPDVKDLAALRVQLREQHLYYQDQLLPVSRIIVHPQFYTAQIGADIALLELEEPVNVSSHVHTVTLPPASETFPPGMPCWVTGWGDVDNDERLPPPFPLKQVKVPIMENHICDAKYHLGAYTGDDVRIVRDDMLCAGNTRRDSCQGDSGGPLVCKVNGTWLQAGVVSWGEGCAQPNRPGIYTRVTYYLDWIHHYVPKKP
Residues, ends and D or L forms follow the SMILES beside them. *: point of attachment. ACC = NC(=O)Cc1cc(=O)oc2cc(N*)ccc12
REPORTED ENDPOINT: Km (µM)
# value in µM; strip the unit string

The cases that follow already have their Km on record.
Req: Which Km value belongs to CC(=O)N1CCC[C@H]1C(=O)N[C@@H](C)C(=O)N[C@@H](CC(N)=O)C(=O)N[C@@H](CCCCN)C(=O)Nc1ccc2c(CC(N)=O)cc(=O)oc2c1 [Ac-PANK-ACC] (Ac-PANK-{ACC}) ?
Resp: 111

Req: I have this compound here, CC(=O)N1CCC[C@H]1C(=O)N[C@@H](CCCNC(=N)N)C(=O)N[C@H](C(=O)N[C@@H](CCCCN)C(=O)Nc1ccc2c(CC(N)=O)cc(=O)oc2c1)[C@@H](C)O [Ac-PRTK-ACC] (Ac-PRTK-{ACC}) , and I need its recorded Km.
Resp: 14.7

Req: What value of measured Km is listed for CC(=O)N1CCC[C@H]1C(=O)N[C@@H](CCCNC(=N)N)C(=O)N[C@@H](CC(N)=O)C(=O)N[C@@H](CCCCN)C(=O)Nc1ccc2c(CC(N)=O)cc(=O)oc2c1 [Ac-PRNK-ACC] (Ac-PRNK-{ACC}) ?
Resp: 8.9

Others:
Req: Suppose we examine the compound CC(=O)N1CCC[C@H]1C(=O)N[C@@H](CCCNC(=N)N)C(=O)N[C@@H](CC(N)=O)C(=O)N[C@@H](CCCNC(=N)N)C(=O)Nc1ccc2c(CC(N)=O)cc(=O)oc2c1 [Ac-PRNR-ACC] (Ac-PRNR-{ACC}) ; what Km value has been reported?
Resp: 16.5
